- System: rats
- measurement.parameters: continuous infusion 2×MIR
observation.type: Adverse reactions: Tremor (incidence)

molecule: C[C@H](c1ccccc1)n1cncc1C(=O)OCCC1CCC1 [Compound A18]
observation.type: Adverse reactions: Tremor (incidence)
experimental.value: Tremor (5/6)
--
molecule: CCOC(=O)c1cncn1[C@H](C)c1ccccc1 [Etomidate, reference compound]
observation.type: Adverse reactions: Tremor (incidence)
experimental.value: 6/6
--
molecule: CCC1(OC(=O)c2cncn2[C@H](C)c2ccccc2)COC1 [Compound B18]
observation.type: Adverse reactions: Tremor (incidence)
experimental.value: Tremor (4/6)
--
molecule: C[C@H](c1ccccc1)n1cncc1C(=O)OCC1CC1 [Compound A15]
observation.type: Adverse reactions: Tremor (incidence)
experimental.value: Tremor (5/6)
--
molecule: CCCC1(COC(=O)c2cncn2[C@H](C)c2ccccc2)COC1 [Compound B10]
observation.type: Adverse reactions: Tremor (incidence)
experimental.value: Tremor (3/6)
--
molecule: C[C@H](c1ccccc1)n1cncc1C(=O)OC1CCC1 [Compound A17]
observation.type: Adverse reactions: Tremor (incidence)
experimental.value: Tremor (2/6)

State the recorded Adverse reactions: Tremor (incidence) for every item in the following list.
1. CC(OC(=O)c1cncn1[C@H](C)c1ccccc1)C1CC1 (stereo partly drawn) [Compound A16]
2. CCCC1(OC(=O)c2cncn2[C@H](C)c2ccccc2)COC1 [Compound B19]
3. COCC1(COC(=O)c2cncn2[C@H](C)c2ccccc2)CCC1 [Compound A11]
4. C[C@H](c1ccccc1)n1cncc1C(=O)OCC1CC(F)(F)C1 [Compound A12]
5. CCC1(COC(=O)c2cncn2[C@H](C)c2ccccc2)COC1 [Compound B9]
6. COC(=O)C1(OC(=O)c2cncn2[C@H](C)c2ccccc2)CC1 [CPMM, cyclopropyl methoxycarbonyl methylate, reference compound]
7. C[C@H](c1ccccc1)n1cncc1C(=O)OCC1(C)COC1 [Compound B5]
8. C[C@H](c1ccccc1)n1cncc1C(=O)OCC1(CO)CC1 [Compound A7]

1: Tremor (3/6); 2: Tremor (5/6); 3: Tremor (5/6); 4: Tremor (4/6); 5: 1/6; 6: 5/6; 7: Tremor (2/6); 8: Tremor (4/6)

----------
Measured Minimal lethal dose on rats follows.

The examples below pair each entry with its known result.
molecule: C=CC#CC(C)(C)OC(=O)c1c(F)ncn1[C@H](C)c1ccccc1 [Compound E21]
Minimal lethal dose: >9 mg/kg
--
molecule: C#CC(C)(C)OC(=O)c1cncn1[C@H](C)c1ccccc1 [Compound D15]
Minimal lethal dose: >4 mg/kg
--
molecule: C[C@H](c1ccccc1)n1cncc1C(=O)OC1(CC2CO2)COC1 (stereo partly drawn) [Compound B22]
Minimal lethal dose: >17 mg/kg
--
molecule: CSCOC(=O)c1cncn1[C@H](C)c1ccccc1 [Compound C26]
Minimal lethal dose: >6 mg/kg
--
molecule: C[C@H](c1ccccc1)n1cnc(F)c1C(=O)OC1CCC1 [Compound E9]
Minimal lethal dose: >6 mg/kg
--
molecule: C[C@H](c1ccccc1)n1cnc(F)c1C(=O)OC1CSC1 [Compound E11]
Minimal lethal dose: >4 mg/kg

State the recorded Minimal lethal dose for every item in the following list.
1. CCCCC(CCCC)OC(=O)c1cncn1[C@H](C)c1ccccc1 [Compound C25]
2. C#CC1(OC(=O)c2c(F)ncn2[C@H](C)c2ccccc2)COC1 [Compound E4]
3. C=CC#CC(C)OC(=O)c1cncn1[C@H](C)c1ccccc1 (stereo partly drawn) [Compound D59]

>4 mg/kg
>10 mg/kg
>13 mg/kg
